Recorded values, source PubChem BioAssay (NCI).

- System: HCT-116 colon
- protocol_text: NCI-60 one-dose screen, 48 h (100 = growth as untreated, 0 = no growth, -100 = all killed)
- condition_notes: 10 µM
About 83,000 compounds went through this panel and 20% of them were active in at least one assay; those are over-represented in the sample as a whole.
Parameter threshold = 40%. Response is Criterion met when growth meets or exceeds it, else Criterion not met.

INPUT: Is the recorded value of growth equal to or greater than 40% for this molecule? O=C(CNc1nc(-c2ccccc2)cs1)Nc1ccc(Cl)cc1[N+](=O)[O-]
OUTPUT: Criterion not met

INPUT: Is the recorded value of growth equal to or greater than 40% for this molecule? O=C(CSc1nnc(-c2c[nH]c3ccccc23)n1-c1ccccc1)Nc1ccc(C(=O)/C=C/c2ccc(Cl)cc2)cc1
OUTPUT: Criterion not met

INPUT: Is the recorded value of growth equal to or greater than 40% for this molecule? O=C1Nc2cc(-c3ccc(NC(=O)c4cccc([N+](=O)[O-])c4)cc3)ccc2/C1=C/c1ccc[nH]1
OUTPUT: Criterion met

Continuing:
INPUT: Is the recorded value of growth equal to or greater than 40% for this molecule? COc1ccc(OC)c(/C=N/NC(=O)c2ccc3nc(-c4ccc(Cl)cc4)[nH]c3c2)c1
OUTPUT: Criterion met

INPUT: Is the recorded value of growth equal to or greater than 40% for this molecule? CC1(c2ccccc2)NC(=O)N(CC(=O)Nc2ccc(C(=O)/C=C/C=C/c3ccccc3)cc2)C1=O (centres undefined)
OUTPUT: Criterion not met

INPUT: Is the recorded value of growth equal to or greater than 40% for this molecule? Cc1cccc2cc(-c3cc(-c4ccccc4)nc(=S)[nH]3)c(Cl)nc12
OUTPUT: Criterion met

INPUT: Is the recorded value of growth equal to or greater than 40% for this molecule? Cc1ccc(C(C)C)cc1NC(=O)c1ccccc1O
OUTPUT: Criterion not met

INPUT: Is the recorded value of growth equal to or greater than 40% for this molecule? CCCCSc1nc(Nc2ccc(/C(C)=N/NC(N)=S)cc2)c(C#N)c(-c2ccc(OC)cc2)n1
OUTPUT: Criterion not met

----------
- Test system: OVCAR-3 ovarian
- protocol_text: NCI-60 one-dose screen, 48 h (100 = growth as untreated, 0 = no growth, -100 = all killed)
- condition_notes: 10 µM
Compounds without any hit were thinned out: in the full panel of roughly 83,000, 20% have a hit.
measured_property: growth (%)
Numeric answer only, unit % assumed.

The cases that follow already have their growth on record.
INPUT: Quote growth reported for CCOc1ccc(/C=N/NC(=O)Cn2nc(Cc3ccccc3)c3onc(C)c3c2=O)cc1 please.
OUTPUT: 14.7

INPUT: Quote growth reported for Cn1cc(-c2cc(N)n3nc(-c4c[nH]c5ccc(Br)cc45)cc3n2)c2cccnc21 please.
OUTPUT: -78.9

INPUT: Quote growth reported for Cc1nn(-c2ccccc2)c2ncn(CC(=O)N/N=C/c3c[nH]c4ccccc34)c(=O)c12 please.
OUTPUT: 84.3

INPUT: Quote growth reported for Cc1nc2c(cnn2-c2ccccc2)c(=O)n1-c1ccc(NC(=O)c2ccc(F)cc2)cc1 please.
OUTPUT: 85.4

Could you now consider this next molecule?
INPUT: Quote growth reported for O=C(NO)c1ccc(CNC(=O)[C@H]2Cc3c([nH]c4ccccc34)[C@H](c3ccccc3)N2)cc1 please.
OUTPUT: 22.7

----------
- Test system: IGROV1 ovarian
- protocol_text: NCI-60 one-dose screen, 48 h (100 = growth as untreated, 0 = no growth, -100 = all killed)
- condition_notes: 10 µM
About 83,000 compounds went through this panel and 20% of them were active in at least one assay; those are over-represented in the sample as a whole.
measured_property: growth (%)
Numeric answer only, unit % assumed.

INPUT: Quote growth reported for Cc1ccc(/C=C(\C#N)n2nnc3c(F)cccc32)cc1 please.
OUTPUT: 8.21

INPUT: Quote growth reported for CC(=O)c1ccc(NC(=O)NCn2c(=O)[nH]c3ccccc3c2=O)cc1 please.
OUTPUT: 104

INPUT: Quote growth reported for O=C(c1ccc(O)cc1)C1[C@H](c2ccc(Br)cc2)[C@@H](c2ccccc2)NC12C(=O)Nc1ccccc12 (stereo partly drawn) please.
OUTPUT: 25.8

INPUT: Quote growth reported for CC(C)C(=O)Nc1ccc(C(=O)NC(=S)Nc2ccc(C(=O)O)cc2)cc1 please.
OUTPUT: 106

INPUT: Quote growth reported for COc1cc(-c2nc3cc(Cl)c(Cl)cc3[nH]2)ccc1OCc1nnc(-c2ccc(Br)cc2)o1 please.
OUTPUT: 42

INPUT: Quote growth reported for COc1ccc2c3nc4cc(C)c(C)cc4nc3n(CCN(C)C)c2c1 please.
OUTPUT: -8.59

Continuing:
INPUT: Quote growth reported for CNC(=O)c1cccc(N2CCc3c2ccc(NC(=O)Nc2ccc(N4CCN(C)CC4)c(C(F)(F)F)c2)c3F)c1 please.
OUTPUT: -91.7

INPUT: Quote growth reported for CN1CCN(c2ccc(C(=O)/C=C/c3cc(C(F)(F)F)ccc3Cl)cc2)CC1 please.
OUTPUT: -82.7

INPUT: Quote growth reported for CC(=O)Nc1ccc(-c2cn(-c3cccc(C(=O)Nc4ccc(Cl)c(C(F)(F)F)c4)c3)nn2)cn1 please.
OUTPUT: -54

INPUT: Quote growth reported for O=C1Nc2ccc(Cl)cc2/C1=C/c1cccc(OCc2ccccc2)c1 please.
OUTPUT: 36.7

INPUT: Quote growth reported for C=C1CCC2C3(C)COC(c4c(F)cccc4F)OC3CCC2(C)C1C/C=C1/C(=O)OCC1O (stereo not drawn) please.
OUTPUT: -26.7

INPUT: Quote growth reported for COc1ccc2[nH]c(=O)c(CSc3ccc(Nc4nccc(-c5ccc(Cl)cc5)n4)cc3)cc2c1 please.
OUTPUT: 105

INPUT: Quote growth reported for COC1=C[C@@]23CCC(=O)N2CCc2cc4c(cc2[C@H]3[C@H]1OC(=O)C(C)(C)O)OCO4 please.
OUTPUT: 103

INPUT: Quote growth reported for Cc1ccc([N+](=O)[O-])c(C(=O)Nc2ccc(-c3ccc4c(c3)NC(=O)/C4=C\c3ccc[nH]3)cc2)c1 please.
OUTPUT: 53.9

INPUT: Quote growth reported for CCCn1c(=O)c2[nH]c(-c3ccc(OCc4nc5ccccc5[nH]4)cc3)nc2n(CCC)c1=O please.
OUTPUT: 39.8

INPUT: Quote growth reported for Cc1ccc(-c2cc(C(=O)N=Nc3c(O)[nH]c4ccc(Br)cc34)c3ccccc3n2)cc1 please.
OUTPUT: 52.9

INPUT: Quote growth reported for CCCCCCCCCCCCCCCCCCCC(=O)NCCc1c[nH]c2ccc(OC(=O)NOCCOCCOCCOCCOCCOCCOCCOCCOCCOCCOCCOCCOCCOCCOCCOCCOCCOCCOCCOCCOCCOCCOC)cc12 please.
OUTPUT: 18.9

INPUT: Quote growth reported for CO[C@@H]1CSS[C@H]1Cn1nc(-c2ccc(Oc3ccccc3)cc2)c2c(N)ncnc21 please.
OUTPUT: 80.4

----------
- Tested on: SF-295 CNS
- protocol_text: NCI-60 one-dose screen, 48 h (100 = growth as untreated, 0 = no growth, -100 = all killed)
- condition_notes: 10 µM
This is part of a sample that, as a whole, favours compounds with a hit. Of some 83,000 tested, about 20% had one in any assay.
measured_property: growth (%)
Numeric answer only, unit % assumed.

INPUT: Quote growth reported for COc1ccc(CCN2C(=O)/C(=C/c3csc(C#N)n3)SC2=S)cc1 please.
OUTPUT: 77.5

Continuing:
INPUT: Quote growth reported for Nc1nnc(-c2c[nH]c3ncccc23)c(-c2c[nH]c3ccc(Br)cc23)n1 please.
OUTPUT: 41.9

INPUT: Quote growth reported for COc1ccc2nc(Cl)c(-c3cc(-c4ccccc4)nc(=S)[nH]3)cc2c1 please.
OUTPUT: 50.9

INPUT: Quote growth reported for COc1cc2c3c(n(CCCNCCO)c(=O)c2cc1OC)-c1nc2c(cc1C3=O)OCO2 please.
OUTPUT: -8.95

INPUT: Quote growth reported for CCOc1ccc(/C=N/NC(=O)Cn2nc(Cc3ccc([N+](=O)[O-])cc3)c3onc(C)c3c2=O)cc1 please.
OUTPUT: 1.32

INPUT: Quote growth reported for COc1ccc2nc(Cl)c(-c3cc(-c4ccccc4)nc(=O)[nH]3)cc2c1 please.
OUTPUT: 64.4

----------
- System: OVCAR-4 ovarian
- protocol_text: NCI-60 one-dose screen, 48 h (100 = growth as untreated, 0 = no growth, -100 = all killed)
- condition_notes: 10 µM
About 83,000 compounds went through this panel and 20% of them were active in at least one assay; those are over-represented in the sample as a whole.
Entries and their growth values follow.
Numeric answer only, unit % assumed.

The cases that follow already have their growth on record.
INPUT: Quote growth reported for CN(C)CCNC(=O)OCCCCOc1cc(O)c2c(=O)cc(-c3ccccc3)oc2c1 please.
OUTPUT: -16.2

INPUT: Quote growth reported for CC1(c2ccccc2)NC(=O)N(CC(=O)Nc2ccc(C(=O)/C=C/c3ccccc3)cc2)C1=O (centres undefined) please.
OUTPUT: 60.9

INPUT: Quote growth reported for CCCCCCCCCCCCCCCCCCCC(=O)NCCc1c[nH]c2ccc(O)cc12 please.
OUTPUT: 98

INPUT: Quote growth reported for Brc1ccc(/C=C/c2n(Cc3ccc4ccccc4c3)c3ccccc3[n+]2Cc2ccc3ccccc3c2)cc1 please.
OUTPUT: -85.9

INPUT: Quote growth reported for C=CC(=O)Nc1nc(-c2cccc(NS(=O)(=O)c3cccc4c(N(C)C)cccc34)c2)cs1 please.
OUTPUT: 7.55

Continuing:
INPUT: Quote growth reported for C#Cc1ccc(S(=O)(=O)Nc2cccc(-c3csc(NC(C)=O)n3)c2)cc1 please.
OUTPUT: 59.7

INPUT: Quote growth reported for CN(C(=O)c1ccc(C(F)(F)F)cc1C(F)(F)F)c1sc2c(c1C#N)CCC(=O)C2 please.
OUTPUT: 59.3

INPUT: Quote growth reported for Cc1ccc(-c2nc(Nc3ccc(C)c(S(N)(=O)=O)c3)c3ccccc3n2)cc1 please.
OUTPUT: 70.1

INPUT: Quote growth reported for COC1=C[C@@]23CCC(=O)N2CCc2cc4c(cc2[C@H]3[C@H]1OC(=O)C(C)(C)O)OCO4 please.
OUTPUT: 98.6
